Test system: MDA-MB-231 breast
procedure-details: NCI tumour cell line growth inhibition, 48 h
property-measured: TGI (µM)
Respond numerically; units are µM and should not be typed.

CCOC(=O)c1cc2c([nH]1)C(=O)CC1=C2CCN1Cc1ccccc1	28.8
c1ccc2c3c([nH]c2c1)C1c2[nH]c4ccccc4c2CCN1CC3	36.6

Field: next molecule
Input COC(=O)[C@@]1(C)CC[C@]2(C)CC[C@]3(C)C4=CC=C5C(=CC(=O)C(O)=C5C)[C@]4(C)CC[C@@]3(C)[C@@H]2C1 . Output TGI: 0.395

###

System: RXF 393 renal
procedure-details: NCI tumour cell line growth inhibition, 48 h
property-measured: TGI (µM)
Respond numerically; units are µM and should not be typed.

Some compounds with known TGI results, for comparison:
Cc1c(CCCl)c(N=[N+]=[N-])n2c(nc3ccccc32)c1C#N	2.85
CC(C)C(=O)/C=C/c1ccc(Cl)cc1	35.5
CCCCN(CCCC)CCCN=c1nc2c(c(N)n1-c1ccccc1)c(=S)n(-c1ccccc1)c(=S)n2-c1ccccc1	4.75

Input Nc1nc(NNc2ccc(Cl)c(Cl)c2)cc(=O)[nH]1 . Output TGI: 67.5

Input CC1=C[C@]2(CC(C)C3C(CC4(C)C5CCC6C(C)(C)C(=O)CC[C@@]67C[C@@]57CC[C@]34C)O2)OC1=O (stereo partly specified) . Output TGI: 21.8

meta.source: PubChem BioAssay (NCI)
